// data source = PubChem BioAssay (Tox21)

method description: qHTS assay to identify small molecule antagonists of the estrogen related receptor (ERR) signaling pathway from Tox21 library (AID 1224848); note: nearly all actives have a fitted effect of over 50% in size
assay setup: ERR reporter cell line, luciferase antagonist mode, 18 h; series mostly up to 92.4 µM
Records with an inconclusive call do not appear. Calls of active or inactive are those of the source. Calls come from the whole dose curve; as a rule, active = well fitted inhibition curve with a large enough effect in the repeat runs; inconclusive = weak or mixed curves; inactive = no such curve, though single readings can be large or run the other way.
Outcomes: y (active), n (inactive)

{"compound": "Nc1[nH]c(=O)ncc1F", "label value": "n"}
{"compound": "CCCCCCCCN(C)CCCCCCCC", "label value": "n"}
{"compound": "CCCCCCOC(=O)c1ccccc1O", "label value": "n"}
{"compound": "C=C(C)[C@@H]1CCC2=CC(=O)C[C@@H](C)[C@]2(C)C1", "label value": "n"}
{"compound": "Cc1nc(-c2ccc(OCC(C)C)c(C#N)c2)sc1C(=O)O", "label value": "n"}
{"compound": "NC(=O)c1c(Cl)cccc1Cl", "label value": "n"}
{"compound": "CCCCCCOC(=O)CC(CC(=O)OCCCCCC)(OC(=O)CCC)C(=O)OCCCCCC", "label value": "n"}
{"compound": "COc1cc(CCC(C)=O)ccc1O", "label value": "n"}
{"compound": "Cc1c(C)n(CCN(C)C)c2ccc(C(=O)OCCN(C)C)cc12", "label value": "n"}
{"compound": "Cc1ccccc1Br", "label value": "n"}
{"compound": "Nc1nc2c(ncn2CCC(CO)CO)c(=O)[nH]1", "label value": "n"}
{"compound": "CN(C)C(=O)C(CCN1CCC(O)(c2ccc(Cl)cc2)CC1)(c1ccccc1)c1ccccc1", "label value": "y"}
{"compound": "C=C(C)C1CC=C(C)C(O)C1 (centres undefined)", "label value": "n"}
{"compound": "CCCCN(CCO)CCO", "label value": "n"}
{"compound": "CC12CCC(CC1=O)C2(C)C (centres undefined)", "label value": "n"}
{"compound": "CO", "label value": "n"}
{"compound": "C#CC(C)(O)CC(C)C (centres undefined)", "label value": "n"}
{"compound": "OC[C@H]1O[C@@H]2O[C@H]3[C@H](O)[C@@H](O)[C@@H](O[C@H]4[C@H](O)[C@@H](O)[C@@H](O[C@H]5[C@H](O)[C@@H](O)[C@@H](O[C@H]6[C@H](O)[C@@H](O)[C@@H](O[C@H]7[C@H](O)[C@@H](O)[C@@H](O[C@H]8[C@H](O)[C@@H](O)[C@@H](O[C@H]9[C@H](O)[C@@H](O)[C@@H](O[C@H]1[C@H](O)[C@H]2O)O[C@@H]9CO)O[C@@H]8CO)O[C@@H]7CO)O[C@@H]6CO)O[C@@H]5CO)O[C@@H]4CO)O[C@@H]3CO", "label value": "n"}
{"compound": "c1cc(CN2CCCCC2)cc(OCCCNc2nc3ccccc3s2)c1", "label value": "y"}
{"compound": "COC(=O)[C@H]1[C@H]2C[C@@H]3c4[nH]c5cc(OC)ccc5c4CCN3C[C@H]2C[C@@H](OC(=O)COc2ccc(OC)cc2)[C@@H]1OC", "label value": "n"}
{"compound": "CCCCCCCCCCCCCCC", "label value": "n"}
{"compound": "OCc1ccccn1", "label value": "n"}
{"compound": "CCCCC1CCCCC(=O)O1 (centres undefined)", "label value": "n"}
{"compound": "C1=C\\CC/C=C\\CC/C=C\\CC/1", "label value": "n"}
